# System: H1975 cells
# experiment-summary: Cell cytotoxicity assay (MTS), H1975
# Assay type: cell-based, human
# conditions: Homo sapiens, NCI-H1975, 72 h, H1975 cells, 72 h, MTS; read-out: IC50
result-type: IC50 (nM)
Give just the number in nM; leave the unit off.

Task: Would you please give the reported IC50 of CCOC(=O)c1ccc2[nH]c(-c3cccc(F)c3)cc(=O)c2c1 with H1975 cells?
Result: 24

Task: Would you please give the reported IC50 of CCOCc1ccc2[nH]c(-c3ccccc3)cc(=O)c2c1 with H1975 cells?
Result: 810

Task: Would you please give the reported IC50 of COC(=O)c1ccc2[nH]c(-c3ccccc3)cc(=O)c2c1 with H1975 cells?
Result: 207

Task: Would you please give the reported IC50 of CCOC(=O)c1ccc2[nH]c(-c3cccc(C(F)(F)F)c3)cc(=O)c2c1 with H1975 cells?
Result: 780

Task: Would you please give the reported IC50 of CC(C)OC(=O)c1ccc2[nH]c(-c3cccc(F)c3)cc(=O)c2c1 with H1975 cells?
Result: 6

Every entry's value here was drawn from patent US12109207B2.
